- targetSystem: human GLP-1R (human, UniProt P43220 24-463)
- protocolDetails: cell-based or functional assay
Square brackets hold non-standard residues; d marks the D form. Side chains are listed from the residue outwards. αMeF = C[C@](N)(Cc1ccccc1)C(=O)O; Iva = CC[C@](C)(N)C(=O)O; Aib = CC(C)(N)C(=O)O
propertyName: Agonist activity (EC50), Cre-luc reporter assay

>  <binder>
H-Y[Aib]EGT[αMeF]TSDK([Gly-Gly-Gly-Gly-Pal])[Aib]I[Aib]LDKQRQ[Iva]EFVRHLLNK[Aib]TRQRY-NH2

>  <result>
0.082 nM

$$$$
>  <binder>
H-Y[Aib]EGT[αMeF]TSDK([Gly-Gly-Gly-Gly-Pal])AI[Aib]LEKQRQ[Iva]EFVRHLLNK[Aib]TRQRY-NH2

>  <result>
0.045 nM

$$$$
>  <binder>
H-Y[Aib]EGT[αMeF]TSDK([Gly-Gly-Gly-Gly-Pal])AI[Aib]LDKQRQ[Iva]EFVRHLLNK[Aib]TRQRY-NH2

>  <result>
0.079 nM

$$$$
